- System: A549
- test-summary: NCI tumour cell line growth inhibition, 48 h
The source made the active and inactive calls. Cut-off read from the data, not from the text of the source: active = GI50 up to about 1.1 µM and inactive = higher.
reported-endpoint: GI50

| compound | reported-endpoint | reading |
| --- | --- | --- |
| CCn1c2ccc(O)c(C(=O)OC)c2c2cc3ccccc3c(O)c21 | GI50 | 16.3 µM (inactive) |
| CC(=O)OC1C=CC2CCN3C(=O)c4cc5c(cc4[C@H]1C23)OCO5 (stereo not given in full) | GI50 | > 100 µM (inactive) |
| O=c1c2cc([N+](=O)[O-])ccc2n(Cc2ccccc2)n1Cc1ccccc1 | GI50 | 18.6 µM (inactive) |
| COc1ccc(/N=C2\C(=N/c3ccc(OC)cc3)N(S(=O)(=O)c3ccccc3)C(=S)N2c2ccc(OC)cc2)cc1 | GI50 | > 100 µM (inactive) |
| CCOc1cc2c(cnc3c4cc(OC)c(OC)cc4ccc23)cc1OC | GI50 | > 100 µM (inactive) |

Exercise: Return GI50 measured with A549 given this compound: COc1ccccc1CC1(O)OC(=O)c2ccccc21 (stereo not given)
Solution: > 100 µM (inactive)

Where do the numbers come from? From ChEMBL document CHEMBL1201862.
